protocol_details: in vitro
assay_setup: human, hela cells, % viability
property: viability at 28.5 h, 10 µM (%)
Reply with just the number (in %).

INPUT: Consider the compound "Cc1cccc(C)c1NC(=O)CSc1nnc(-c2cccnc2)n1Cc1ccccc1" and give its measured viability at 28.5 h, 10 µM.
OUTPUT: 114

INPUT: Next record, please: "O=C(CS(=O)(=O)c1ccccc1)Nc1ccc(OCc2ccccc2)cc1"
OUTPUT: 98.4

INPUT: Next record, please: "COc1ccc(-c2cc(C(=O)N[C@H]3CCN(Cc4ccccc4)C3)cnc2-c2ccccc2)cn1"
OUTPUT: 93.9

INPUT: Next record, please: "C=CCOc1nc2c(=O)[nH]c(NC(=O)C(C)C)nc2n1[C@H]1C[C@@H](O)[C@@H](CO)O1"
OUTPUT: 100

INPUT: Next record, please: CCN(CC)CCN1C(=O)C(O)=C(C(=O)c2cccs2)C1c1ccccn1 (stereo not shown)
OUTPUT: 76.3

INPUT: Next record, please: "Nc1ccc2cc(-c3ccccc3)cnc2n1"
OUTPUT: 81.7

INPUT: Next record, please: "O=C(Nc1ccccc1-c1ccccc1)c1cc(-c2ccncc2)nc2ccc(Cl)cc12"
OUTPUT: 95

INPUT: Next record, please: CC(=O)N1CCCc2cc(C(O)CN3CCC(C)CC3)ccc21 (stereo not shown)
OUTPUT: 87.3

INPUT: Next record, please: c1cnc(N2CCCC2)c(OC2CCNC2)n1 (stereo not shown)
OUTPUT: 98.3

INPUT: Next record, please: NCCCNCCOc1ccc(Cl)c(Cl)c1 [CBK268631C]
OUTPUT: 111

INPUT: Next record, please: CCc1nc2n(n1)CC(NCc1nc(C)ccc1O)CC2 (stereo not shown)
OUTPUT: 106

INPUT: Next record, please: "C=CCn1c(Cc2csc(NC(=O)c3ccc(S(C)(=O)=O)cc3)n2)n[nH]c1=S"
OUTPUT: 97

INPUT: Next record, please: Cc1ccc(Cl)cc1NC(=O)CC(C(=O)O)N(C)C (stereo not shown)
OUTPUT: 112

INPUT: Next record, please: "Cc1c(S(=O)(=O)Nc2cc(C(F)(F)F)ccc2N2CCOCC2)cnn1-c1ccccc1"
OUTPUT: 99.7

INPUT: Next record, please: "Cn1nc(C2CCN(C(=O)C3CCCC3)CC2)c2cccnc21"
OUTPUT: 101

INPUT: Next record, please: "CCOc1ccc2c(c1)CN(CCCc1nc(C)no1)CC2"
OUTPUT: 99.2

INPUT: Next record, please: "CCS(=O)(=O)Nc1ccc(C(=O)N2CCN(c3ccccc3)CC2)cc1"
OUTPUT: 112

INPUT: Next record, please: "NC(=O)c1ccccc1NC(=O)CCSc1ccc([N+](=O)[O-])cc1Cl"
OUTPUT: 80.1

INPUT: Next record, please: O=C(CC(CN1CCN(CC(=O)N2CCCC2)CC1)C(=O)O)Nc1ccccc1 (stereo not shown)
OUTPUT: 87.9
